The reader will find reported melting point values listed item by item below.

{"columns": ["compound", "melting point"],
 "data": [
  ["Nc1sc2c(c1C(=O)c1ccc(Cl)cc1)CCC(O)C2 (stereo not given)", "176 to 177 °C"],
  ["O=C(O)c1nc2n(c(=O)c1OCc1ccccc1)CCOC2", "171 °C"],
  ["Cc1cc2c(cc1Cl)C=C(C(=O)O)C(C(F)(F)F)S2 (stereo not given)", "240 to 242 °C"],
  ["O=C1CCC(c2ccc(N=C(CCCc3ccccc3)c3ccc(O)cc3O)cc2)=NN1", "274 to 280 °C"],
  ["COc1cccc2c1nc(C(F)F)n2-c1nc(Nc2cccnn2)nc(N2CCOCC2)n1", "261 to 263 °C"],
  ["NC(=O)c1nc(-c2cccc(O)c2)nc2c1[nH]c(=O)n2C1CCOCC1", "361 to 363 °C"],
  ["COC(=O)c1nc(-c2ccc(Cl)c(OC)c2F)cc(N)c1Cl", "141 to 143 °C"],
  ["C=Cc1ccc(S(N)(=O)=O)cc1", "130 to 132 °C"],
  ["CCOC(=O)c1cc(=O)c2cc(C(=O)OCC)c(C(=O)OCC)nc2o1", "106 °C"],
  ["CCN(CC)C(=O)c1cc(-c2ccccc2)c(=O)[nH]c1-c1c(Cl)cccc1C#N", "237 to 240 °C"]
]}
